# target.desc: T1, MfArtemin-MMH (cynomolgous monkey (Macaca fascicularis))
# T1 construct: also called mfARTN.mmh; mfARTN (A108-G22).mmh
# T1 chain: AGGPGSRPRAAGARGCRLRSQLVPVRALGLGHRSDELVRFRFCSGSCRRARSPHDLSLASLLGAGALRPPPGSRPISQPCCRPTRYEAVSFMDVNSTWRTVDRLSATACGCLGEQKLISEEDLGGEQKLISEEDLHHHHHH
# protocol.summary: blocking ELISA, antibody blocks 400 pM mfARTN.mmh binding to plate-coated hGFRa3.hFc
readout.kind: % Blocking with 100 nM Ab (%)
Output spec: scalar in %, unitless text.

Request: Entry under review: H4H33336P (antibody, human IgG4 S228P, kappa, V domains shown, Fully human antibody; also called Artemin mAb; anti-ARTN antibody) VH: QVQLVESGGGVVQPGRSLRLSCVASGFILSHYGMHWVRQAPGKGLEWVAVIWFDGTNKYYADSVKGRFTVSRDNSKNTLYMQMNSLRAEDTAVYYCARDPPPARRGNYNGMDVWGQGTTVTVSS VL: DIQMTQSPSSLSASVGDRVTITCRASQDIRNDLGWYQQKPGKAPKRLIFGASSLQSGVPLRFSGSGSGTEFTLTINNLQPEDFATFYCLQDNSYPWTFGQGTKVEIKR . Reported % Blocking with 100 nM Ab?
Result: 86

Request: Now consider H4H33331P (antibody, human IgG4 S228P, kappa, V domains shown, Fully human antibody (human variable and constant domains) from a VELOCIMMUNE mouse; also called Artemin mAb; anti-ARTN antibody) VH: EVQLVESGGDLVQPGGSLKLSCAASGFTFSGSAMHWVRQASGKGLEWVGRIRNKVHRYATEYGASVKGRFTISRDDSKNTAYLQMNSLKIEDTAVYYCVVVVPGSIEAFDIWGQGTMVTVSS VL: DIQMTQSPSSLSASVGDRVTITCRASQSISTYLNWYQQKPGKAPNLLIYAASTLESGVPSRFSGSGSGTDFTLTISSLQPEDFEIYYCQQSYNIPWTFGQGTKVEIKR and answer again.
Result: 90

Request: Now consider H4H33349P (antibody, human IgG4 S228P, kappa, V domains shown, Fully human antibody; also called Artemin mAb; anti-ARTN antibody) VH: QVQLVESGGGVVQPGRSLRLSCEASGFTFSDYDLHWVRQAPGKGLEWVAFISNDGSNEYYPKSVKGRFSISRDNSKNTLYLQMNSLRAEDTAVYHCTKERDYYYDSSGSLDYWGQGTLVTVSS VL: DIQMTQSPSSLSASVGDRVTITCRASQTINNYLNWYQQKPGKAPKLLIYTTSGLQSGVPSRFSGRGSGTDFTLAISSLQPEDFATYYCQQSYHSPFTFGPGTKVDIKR and answer again.
Result: 88

Request: Now consider H4H33335P (antibody, human IgG4 S228P, kappa, V domains shown, Fully human antibody; also called Artemin mAb; anti-ARTN antibody) VH: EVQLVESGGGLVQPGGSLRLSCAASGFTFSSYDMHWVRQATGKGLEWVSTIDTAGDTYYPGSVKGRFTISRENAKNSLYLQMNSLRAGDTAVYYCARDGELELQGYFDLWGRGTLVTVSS VL: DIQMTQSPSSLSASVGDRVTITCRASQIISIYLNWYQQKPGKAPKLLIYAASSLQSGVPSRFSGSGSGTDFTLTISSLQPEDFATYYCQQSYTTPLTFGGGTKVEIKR and answer again.
Result: 71
